B1: APBB1IP (parent)
chain: PPEPLSQVSMWDQRWQDHQPLLPI

# Variants of: B1
# assay_protocol: protein stability index of a GFP-peptide fusion (GPS, HEK-293T) (PSI 1-6); higher = more stable;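 also: lentivirally expressed fusions sorted by FACS into six bins by GFP to DsRed ratio, PSI derived from sequencing read proportions per bin multiplied by bin number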
# conditions: c terminus: a fixed tail appended
I would appreciate it if you labelled entries 1 when protein stability index is 3 or higher, otherwise -1.

P4L :: -1

Q: I'd appreciate it if you could say whether `P1D` has protein stability index at least equal to 3.
Result: 1

Q: I'd appreciate it if you could say whether `P1W` has protein stability index at least equal to 3.
Result: -1

Q: I'd appreciate it if you could say whether `H18I` has protein stability index at least equal to 3.
Result: -1

Q: I'd appreciate it if you could say whether `P4W` has protein stability index at least equal to 3.
Result: -1
